Read-out: Cytochrome P450 (CYP2B6), CYP2B6 (gene 1555)
Assay: LTEA_HepaRG_CYP2B6: Life Technologies and Expression Analysis (LTEA) Assay for Cytochrome P450 (CYP2B6) using HepaRG (AID 2283481)
Conditions: mRNA level, 48 h; actives raise or lower the signal
Activity calls are given as the source filed them. How the source made its calls: active means hit-call score of the fitted dose curve at least 0.9, where 1 is the maximum; inactive means score below 0.9.
Labels: True (active), False (inactive)

Compound	Class
COCC(C)O (stereo not drawn)	False
CCN(CC)CCNc1ccc(CNC=O)c2sc3ccc(OC)cc3c(=O)c12	True
Oc1cccc(O)c1	False
Oc1cc2ccccc2c2ccccc12	False
CC[C@H](c1ccc(O)cc1)[C@@H](CC)c1ccc(O)cc1	True
CC(=O)NC1(c2cccc(F)c2)CCN(CC[C@@]2(c3ccc(Cl)c(Cl)c3)CN(c3ccccc3)C(=O)CO2)CC1	False
OCCC(F)(F)C(F)(F)C(F)(F)C(F)(F)C(F)(F)C(F)(F)C(F)(F)C(F)(F)F	False
Cc1cc(CCN2CCN(c3nsc4ccccc34)CC2)cc2c1NC(=O)CC2(C)C	True
CC(C)(C)c1cc(C(C)(C)C)c(O)c(C(C)(C)C)c1	True
CCCCCCCCCCCCc1ccccc1S(=O)(=O)O	True
C=C(C)C(=O)OCCC(F)(F)C(F)(F)C(F)(F)C(F)(F)C(F)(F)C(F)(F)F	True
O=C(OCCOCCOC(=O)c1ccccc1)c1ccccc1	False
CN(C)C=O	False

###

Assay: ACEA_ER_AUC_viability: ACEA Biosciences xCELLigence Real-Time Cell Analysis on Estrogen Receptor Agonism for Viability (AID 2283782);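 further: continuous compound exposure with impedance area under curve over 80 h; hit means loss of impedance signal meaning reduced cell growth or viability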
Records with an inconclusive call do not appear. Calls of active or inactive are those of the source. The calls were made as follows: active = hit-call score of the fitted dose curve at least 0.9, where 1 is the maximum; inconclusive = response in the unintended direction; inactive = score below 0.9.
Possible outcomes: yes = active, no = inactive

Mol smiles	Class
CN1CCN(c2ccccc2/C=C2\SCCN(c3ccc(Cl)c(Cl)c3)C2=O)CC1	yes
C=C(C)C(=O)OCCC(F)(F)C(F)(F)C(F)(F)C(F)(F)C(F)(F)C(F)(F)F	no
ClC1=C(Cl)C(Cl)(Cl)C(Cl)=C1Cl	yes
Nc1cccc2c(N)cccc12	no
NCC(F)(F)C(F)(F)C(F)(F)C(F)(F)C(F)(F)C(F)(F)C(F)(F)F	no
CCCCCCC(=O)O	no
O=C1OC2(c3ccccc31)c1cc(Br)c(O)c(Br)c1Oc1c2cc(Br)c(O)c1Br	no
CCCCC[C@H](O)CC(=O)CCc1ccc(O)c(OC)c1	no
CCCOc1sc(C(=O)N2CCC(c3cc(CN)ccc3F)CC2)c(C)c1Br	yes
CCN(CC)CCNc1ccc(CNC=O)c2sc3ccc(OC)cc3c(=O)c12	yes
CC(=O)NC1(c2cccc(F)c2)CCN(CC[C@@]2(c3ccc(Cl)c(Cl)c3)CN(c3ccccc3)C(=O)CO2)CC1	yes

###

Read-out: CD69, CD69 (gene 969)
Test: BSK_SAg_CD69: BioMAP Diversity Plus: SAg Assay for CD69 Biomarker Activity (AID 2283089);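 on AC50: cell surface CD69 protein quantified by ELISA with fluorescence detection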
Details: primary human HUVEC with PBMC; actives raise or lower the signal
The source made the active and inactive calls. How the source made its calls: active means hit-call score of the fitted dose curve at least 0.9, where 1 is the maximum; inactive means score below 0.9.

Molecule	AC50
CCCCCCCCCCCCCCCS(=O)(=O)Oc1ccccc1	inactive
CCCCCCCCCCCCN1CCCC1=O	29.9 µM (active)
Oc1cccc(O)c1	inactive
CCC(C)(C)C1CCC(O)CC1 (stereo not given)	inactive
COC(=O)CCCCC(=O)OC	inactive
CCc1ccc(CCOc2ccc(CC3SC(=O)NC3=O)cc2)nc1 (stereo not given)	inactive
CC(C)(C)CC(C)(C)c1ccc(O)c(-n2nc3ccccc3n2)c1	inactive
CC#C[C@]1(O)CC[C@H]2[C@@H]3CCC4=CC(=O)CCC4=C3[C@@H](c3ccc(N(C)C)cc3)C[C@@]21C	31.9 µM (active)
Nc1cccc2c(N)cccc12	inactive
CC(C)CCCCCCOC(=O)CCCCC(=O)OCCCCCCC(C)C	inactive
CC1=C(/C=C/C(C)=C/C=C/C(C)=C/C(=O)O)C(C)(C)CCC1	8.54 µM (active)
O=[N+]([O-])c1ccc(O)cc1	inactive
CCN(CC)CCNc1ccc(CNC=O)c2sc3ccc(OC)cc3c(=O)c12	24.9 µM (active)
N#C[C@@H]1CC(F)(F)CN1C(=O)CNC1CC2CCC(C1)N2c1ncccn1 (stereo not given in full)	4.59 µM (active)
CCCCCCCCOC(=O)CCCCCCCCC(=O)OCCCCCCCC	inactive
Cc1oc(-c2ccccc2)nc1CCOc1ccc(C[C@H](Nc2ccccc2C(=O)c2ccccc2)C(=O)O)cc1	14.4 µM (active)
CC(=O)NC1(c2cccc(F)c2)CCN(CC[C@@]2(c3ccc(Cl)c(Cl)c3)CN(c3ccccc3)C(=O)CO2)CC1	25.2 µM (active)
COCC(C)OCC(C)O (stereo not given)	inactive
C#C[C@]1(O)CC[C@H]2[C@@H]3CCC4=CC(=O)CC[C@@H]4[C@H]3CC[C@@]21C	inactive
COc1ccc([N+](=O)[O-])cc1N	inactive
CC(C)(C)c1cc(C(C)(C)C)c(O)c(C(C)(C)C)c1	inactive
O=C(OCCOCCOC(=O)c1ccccc1)c1ccccc1	inactive
OC1CCC(C2CCCCC2)CC1 (stereo not given)	inactive
CC(C)(C)c1cccc(C(C)(C)C)c1O	inactive
CCC(=C(c1ccc(O)cc1)c1ccc(OCCN(C)C)cc1)c1ccccc1	9.48 µM (active)
